B1: FUT8 (parent)
chain: YAHQPRTADEIPMEPGDIIGVAGN

variants of: B1; test: protein stability index of a GFP-peptide fusion (GPS, HEK-293T) (PSI 1-6); higher = more stable; conditions: c terminus: a fixed tail appended;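 also: lentivirally expressed fusions sorted by FACS into six bins by GFP to DsRed ratio, PSI derived from sequencing read proportions per bin multiplied by bin number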
We use 4 as the dividing line for protein stability index: on or above the line is class 1, below is class 0.

{"columns": ["Construct sequence", "Assigned class"],
 "data": [
  ["YAHQPRTADEIPNEPGDIIGVAGN", "class 1"],
  ["YALQPRTADEIPMEPGDIIGVAGN", "class 1"],
  ["YAHQPRTADEIPMEPGDIIGVAIN", "class 0"],
  ["YAHQPRTADEIPMEPGDIRGVAGN", "class 1"],
  ["YAHQPRTADCIPMEPGDIIGVAGN", "class 0"],
  ["YAHQPRTADEIPMLPGDIIGVAGN", "class 0"],
  ["YAHMPRTADEIPMEPGDIIGVAGN", "class 0"],
  ["YAHQPRTADEIPMEPADIIGVAGN", "class 1"],
  ["YACQPRTADEIPMEPGDIIGVAGN", "class 0"],
  ["YAHQPRTDDEIPMEPGDIIGVAGN", "class 1"],
  ["YAHQPRTMDEIPMEPGDIIGVAGN", "class 0"],
  ["YAHQPRTADEIPMEPGDIIGVAGL", "class 0"],
  ["YAHQPRTADYIPMEPGDIIGVAGN", "class 0"],
  ["YAHQPRTADEIPMEPGNIIGVAGN", "class 0"],
  ["YAHQPRTADEIPMETGDIIGVAGN", "class 1"],
  ["YAHQPRTADEIPMEPGHIIGVAGN", "class 0"],
  ["YAHQPRTADEIPMEPGDIIRVAGN", "class 0"],
  ["YAHQPRTADEIPMEPGDIIGVYGN", "class 0"],
  ["YAHSPRTADEIPMEPGDIIGVAGN", "class 0"],
  ["YAHQPRTADEIPYEPGDIIGVAGN", "class 1"],
  ["YAHQPRQADEIPMEPGDIIGVAGN", "class 1"],
  ["YAHQPRTADEIPMEPGDYIGVAGN", "class 0"],
  ["YAHQPRTADEIPMPPGDIIGVAGN", "class 0"],
  ["YAHQPRTADEIPMEKGDIIGVAGN", "class 1"],
  ["YAHFPRTADEIPMEPGDIIGVAGN", "class 0"],
  ["YAHQPRTADEIPMEPGDIIGVAGK", "class 0"],
  ["YAHQPRTADEIPMEPGDIIGVACN", "class 0"],
  ["YAHQPRTADEIPMEPDDIIGVAGN", "class 1"],
  ["YAHQPRTADEIPMEPIDIIGVAGN", "class 0"],
  ["YKHQPRTADEIPMEPGDIIGVAGN", "class 1"],
  ["YAHQPRTADWIPMEPGDIIGVAGN", "class 0"],
  ["YAHQPETADEIPMEPGDIIGVAGN", "class 1"],
  ["YAHQPRTADEIPMEPGDIIGVAGR", "class 0"],
  ["YAHQPRTADEIPMEPGDIIGVAGD", "class 1"],
  ["YAHQPRTSDEIPMEPGDIIGVAGN", "class 0"],
  ["YAHQPRTADELPMEPGDIIGVAGN", "class 0"],
  ["YAHQPRTADEIPMEPGDIIGHAGN", "class 1"],
  ["YAHQPITADEIPMEPGDIIGVAGN", "class 1"],
  ["YAHQPRTYDEIPMEPGDIIGVAGN", "class 0"],
  ["PAHQPRTADEIPMEPGDIIGVAGN", "class 1"],
  ["YAHQPRTADEIPMEPGDIIGVAGI", "class 0"],
  ["YAHQPRTAKEIPMEPGDIIGVAGN", "class 0"],
  ["YAHQPRTADEIPMEPGDIIYVAGN", "class 0"],
  ["YAHQPRTADEIPPEPGDIIGVAGN", "class 1"],
  ["YAGQPRTADEIPMEPGDIIGVAGN", "class 0"],
  ["YAHCPRTADEIPMEPGDIIGVAGN", "class 0"],
  ["YAHQPRTADEAPMEPGDIIGVAGN", "class 1"],
  ["YAHQPRTAGEIPMEPGDIIGVAGN", "class 0"],
  ["YAHQPRTADEIPMEPGDIILVAGN", "class 0"],
  ["YAHQPRTADEIPMEPGDTIGVAGN", "class 1"],
  ["YAHQPRTADTIPMEPGDIIGVAGN", "class 0"],
  ["YAHQPRTADEICMEPGDIIGVAGN", "class 0"],
  ["YMHQPRTADEIPMEPGDIIGVAGN", "class 1"],
  ["YAHQPRTADEIPMRPGDIIGVAGN", "class 0"],
  ["YAHQNRTADEIPMEPGDIIGVAGN", "class 1"],
  ["YAHQPRTKDEIPMEPGDIIGVAGN", "class 0"]
]}
